- experimental-target: human 5-HT2C (h5-HT2C) receptor (Homo sapiens)
- Sequence (P28335 33-458): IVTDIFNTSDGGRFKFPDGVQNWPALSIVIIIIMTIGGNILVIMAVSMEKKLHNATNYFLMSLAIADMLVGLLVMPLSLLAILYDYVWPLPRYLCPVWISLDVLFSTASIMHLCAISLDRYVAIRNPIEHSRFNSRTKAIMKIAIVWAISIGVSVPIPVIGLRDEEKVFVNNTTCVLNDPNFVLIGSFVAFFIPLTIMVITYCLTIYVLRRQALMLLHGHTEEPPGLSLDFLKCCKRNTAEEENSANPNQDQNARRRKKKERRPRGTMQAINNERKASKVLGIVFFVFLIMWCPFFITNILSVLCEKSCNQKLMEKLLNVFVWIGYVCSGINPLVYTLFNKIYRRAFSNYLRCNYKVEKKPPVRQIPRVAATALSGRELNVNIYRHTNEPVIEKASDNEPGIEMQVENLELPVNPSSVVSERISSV
- protocol-details: 5-HT2C receptor functional assay (Gq-mediated calcium flux) of saliva-hydrolyzed modified indole alkaloids
- test-parameters: 5HT2C agonist activity; compounds hydrolyzed by treatment with human saliva; Flp-In T-REx 293 cells expressing h5-HT2C; peak calcium flux
observable: EC50 (nM)
Note: unit nM is implicit; provide only the numeric part.

// worked examples, EC50 included
CCCN(CCC)CCc1c[nH]c2cccc(O[C@H]3O[C@H](CO)[C@@H](O)[C@H](O)[C@H]3O)c12 (stereo in doubt) [Hydrolyzed Compound A-6]: 214
CC(C)N(CCc1c[nH]c2cccc(O[C@H]3O[C@H](CO)[C@@H](O)[C@H](O)[C@H]3O)c12)C(C)C (stereo in doubt) [Hydrolyzed Compound A-7]: 1550
CCN(CC)CCc1c[nH]c2cccc(O[C@H]3O[C@H](CO)[C@@H](O)[C@H](O)[C@H]3O)c12 (stereo in doubt) [Hydrolyzed Compound A-4]: 258
C=CCN(C)CCc1c[nH]c2cccc(O[C@H]3O[C@H](CO)[C@@H](O)[C@H](O)[C@H]3O)c12 (stereo in doubt) [Hydrolyzed Compound A-8]: 49.2

Would you kindly look at the next entry?
# input Query: EC50; subject: CCCN(CC)CCc1c[nH]c2cccc(O[C@H]3O[C@H](CO)[C@@H](O)[C@H](O)[C@H]3O)c12 [Hydrolyzed Compound A-5]
# output 117

* * *

Below is a list of entries, each paired with its recorded Emax % 5-HT (± SEM) value.
- experimental-target: human 5-HT2C (h5-HT2C) receptor (Homo sapiens, UniProt P28335)
- Construct: host or cells: Flp-In T-REx 293 cells
- protocol-details: 5-HT2C receptor functional assay (Gq-mediated calcium flux) of saliva-hydrolyzed modified indole alkaloids
- Format: cell-based
- test-parameters: 5HT2C agonist activity; compounds hydrolyzed by treatment with human saliva; normalized to 5-HT (100%)
Note: unit % 5-HT is implicit; provide only the numeric part.

// worked examples, Emax % 5-HT (± SEM) included
CCCN(C)CCc1c[nH]c2cccc(O[C@H]3O[C@H](CO)[C@@H](O)[C@H](O)[C@H]3O)c12 (stereo in doubt) [Hydrolyzed Compound A-2]: 90.7
CCN(CC)CCc1c[nH]c2cccc(O[C@H]3O[C@H](CO)[C@@H](O)[C@H](O)[C@H]3O)c12 (stereo in doubt) [Hydrolyzed Compound A-4]: 80.1
CC(C)N(CCc1c[nH]c2cccc(O[C@H]3O[C@H](CO)[C@@H](O)[C@H](O)[C@H]3O)c12)C(C)C (stereo in doubt) [Hydrolyzed Compound A-7]: 94.4
CN(CCc1c[nH]c2cccc(O[C@H]3O[C@H](CO)[C@@H](O)[C@H](O)[C@H]3O)c12)C1CC1 (stereo in doubt) [Hydrolyzed Compound A-9]: 79.1
C=CCN(C)CCc1c[nH]c2cccc(O[C@H]3O[C@H](CO)[C@@H](O)[C@H](O)[C@H]3O)c12 (stereo in doubt) [Hydrolyzed Compound A-8]: 81.5
CCN(C)CCc1c[nH]c2cccc(O[C@H]3O[C@H](CO)[C@@H](O)[C@H](O)[C@H]3O)c12 (stereo in doubt) [Hydrolyzed Compound A-1]: 89.9
CCCN(CCC)CCc1c[nH]c2cccc(O[C@H]3O[C@H](CO)[C@@H](O)[C@H](O)[C@H]3O)c12 (stereo in doubt) [Hydrolyzed Compound A-6]: 84.2

Would you kindly look at the next entry?
# input Query: Emax % 5-HT (± SEM); subject: CCCN(CC)CCc1c[nH]c2cccc(O[C@H]3O[C@H](CO)[C@@H](O)[C@H](O)[C@H]3O)c12 [Hydrolyzed Compound A-5]
# output 89.4
